Listing of recorded Ka by entry.
- Tested on: Human immunodeficiency virus 1
- Assay Info: Binding affinity to HIV-1 FSS RNA assessed as association rate constant by SPR assay

Structure Smiles String	Measurement Unit	Ka
CCc1nc2ccccc2cc1C(=O)N(C)[C@@H](CCn1cc(C[C@@H](C(=O)N2C[C@H](O)C[C@H]2C(=O)N(C)[C@@H](Cc2ccccc2)C(=O)NCCCN)N(C)C(=O)c2cc3ccccc3nc2CC)nn1)C(=O)N1C[C@H](O)C[C@H]1C(=O)N(C)[C@@H](Cc1ccccc1)C(=O)NCCCN	×10⁴ /M.s	1.49
CN(C(=O)c1cnc2ccccc2c1)[C@@H](CCn1cc(C[C@@H](C(=O)N2CCC[C@H]2C(=O)N(C)[C@@H](Cc2ccccc2)C(=O)NCCCN)N(C)C(=O)c2cnc3ccccc3c2)nn1)C(=O)N1CCC[C@H]1C(=O)N(C)[C@@H](Cc1ccccc1)C(=O)NCCCN	×10⁴ /M.s	5.66
CN(C(=O)c1cnc2ccccc2c1)[C@@H](CCn1cc(C[C@@H](C(=O)N2C[C@H](O)C[C@H]2C(=O)N(C)[C@@H](Cc2ccccc2)C(=O)NCCCN)N(C)C(=O)c2cnc3ccccc3c2)nn1)C(=O)N1C[C@H](O)C[C@H]1C(=O)N(C)[C@@H](Cc1ccccc1)C(=O)NCCCN	×10⁴ /M.s	6.74
CCc1nc2ccccc2cc1C(=O)N(C)[C@@H](CCn1cc(C[C@@H](C(=O)N2CCC[C@H]2C(=O)N(C)[C@@H](Cc2ccccc2)C(=O)NCCCN)N(C)C(=O)c2cc3ccccc3nc2CC)nn1)C(=O)N1CCC[C@H]1C(=O)N(C)[C@@H](Cc1ccccc1)C(=O)NCCCN	×10⁴ /M.s	6.49

---

Listing of recorded Kdiss by entry.
- System: Human immunodeficiency virus 1
- Assay Info: Binding affinity to HIV-1 FSS RNA assessed as dissociation rate constant by SPR assay

Structure Smiles String	Measurement Unit	Kdiss
CN(C(=O)c1cnc2ccccc2c1)[C@@H](CCn1cc(C[C@@H](C(=O)N2CCC[C@H]2C(=O)N(C)[C@@H](Cc2ccccc2)C(=O)NCCCN)N(C)C(=O)c2cnc3ccccc3c2)nn1)C(=O)N1CCC[C@H]1C(=O)N(C)[C@@H](Cc1ccccc1)C(=O)NCCCN	×10⁻³ /s	2.26
CCc1nc2cc3ccccc3cc2cc1C(=O)N(C)[C@@H](CCn1cc(C[C@@H](C(=O)N2CCC[C@H]2C(=O)N(C)[C@@H](Cc2ccccc2)C(=O)NCCCN)N(C)C(=O)c2cc3cc4ccccc4cc3nc2CC)nn1)C(=O)N1CCC[C@H]1C(=O)N(C)[C@@H](Cc1ccccc1)C(=O)NCCCN	×10⁻³ /s	3
CN(C(=O)c1cnc2ccccc2c1)[C@@H](CCn1cc(C[C@@H](C(=O)N2C[C@H](O)C[C@H]2C(=O)N(C)[C@@H](Cc2ccccc2)C(=O)NCCCN)N(C)C(=O)c2cnc3ccccc3c2)nn1)C(=O)N1C[C@H](O)C[C@H]1C(=O)N(C)[C@@H](Cc1ccccc1)C(=O)NCCCN	×10⁻³ /s	5.42

---

- Assay Info: Binding affinity to HIV-1 FSS RNA assessed as dissociation constant by SPR assay
- Set-up: species or system Human immunodeficiency virus 1
pKd: −log10 of the molar value.
Measured Endpoint: pKd

Structure Smiles String	Measured Endpoint	Experimental Value
CN(C(=O)c1cnc2ccccc2c1)[C@@H](CCn1cc(C[C@@H](C(=O)N2CCC[C@H]2C(=O)N(C)[C@@H](Cc2ccccc2)C(=O)NCCCN)N(C)C(=O)c2cnc3ccccc3c2)nn1)C(=O)N1CCC[C@H]1C(=O)N(C)[C@@H](Cc1ccccc1)C(=O)NCCCN	pKd	7.21
NC[C@@H]1O[C@H](O[C@H]2[C@@H](O)[C@H](O[C@@H]3[C@@H](O)[C@H](N)C[C@H](N)[C@H]3O[C@H]3O[C@H](CN)[C@@H](O)[C@H](O)[C@H]3N)O[C@@H]2CO)[C@H](N)[C@@H](O)[C@@H]1O	pKd	3.11
CN(C(=O)c1cnc2ccccc2c1)[C@@H](CCn1cc(C[C@@H](C(=O)N2C[C@H](O)C[C@H]2C(=O)N(C)[C@@H](Cc2ccccc2)C(N)=O)N(C)C(=O)c2cnc3ccccc3c2)nn1)C(=O)N1C[C@H](O)C[C@H]1C(=O)N(C)[C@@H](Cc1ccccc1)C(N)=O	pKd	5.83
CCc1nc2cc3ccccc3cc2cc1C(=O)N(C)[C@@H](CCn1cc(C[C@@H](C(=O)N2CCC[C@H]2C(=O)N(C)[C@@H](Cc2ccccc2)C(=O)NCCCN)N(C)C(=O)c2cc3cc4ccccc4cc3nc2CC)nn1)C(=O)N1CCC[C@H]1C(=O)N(C)[C@@H](Cc1ccccc1)C(=O)NCCCN	pKd	7.80
